The entries below are paired with their reported Rice plant response rating.
Tested on: rice (Oryza sativa)
method_description: Test C flooded paddy test plant response
Assay type: in vivo
test_parameters: Flood, 250 g ai/ha; scale of 0 to 100 where 0 is no effect and 100 is complete control; 13 to 15 days
# output: bare number, no unit

| chemical_structure | Rice plant response rating |
| --- | --- |
| Cn1nnnc1-c1ccccc1Oc1ncc(Br)cn1 | 0 |

The recorded Rice plant response rating for entry C=C(C)c1cc(-c2ccccc2Oc2ncc(Br)cn2)on1 equals 0

The recorded Rice plant response rating for entry CC(=O)c1cc(-c2ccccc2Oc2ncc(Br)cn2)no1 equals 0

The recorded Rice plant response rating for entry Clc1ccc(-c2c(I)cccc2Oc2ncc(Cl)cn2)nc1 equals 0

The recorded Rice plant response rating for entry FC(F)Oc1cccc(Oc2ncc(Cl)cn2)c1-c1cc(C(F)F)on1 equals 60

The recorded Rice plant response rating for entry FCc1cc(-c2ccccc2Oc2ncc(Cl)cn2)on1 equals 0

The recorded Rice plant response rating for entry FC(F)c1cc(-c2ccccc2Oc2ncc(Br)cn2)on1 equals 20

The recorded Rice plant response rating for entry Cn1ccc(-c2ccccc2Oc2ncc(Cl)cn2)n1 equals 0

The recorded Rice plant response rating for entry Cn1nc(C(F)(F)F)cc1-c1ccccc1Oc1ncc(Cl)cn1 equals 0

The recorded Rice plant response rating for entry Cn1nc(-c2c(Br)cccc2Oc2ncc(Cl)cn2)cc1C(F)(F)F equals 0

The recorded Rice plant response rating for entry Cc1csc(-c2ccccc2Oc2ncc(Cl)cn2)c1 equals 0

The recorded Rice plant response rating for entry FC(F)(F)c1cnc(Oc2ccccc2-c2cncs2)nc1 equals 0

The recorded Rice plant response rating for entry N#Cc1cccc(Oc2ncc(F)cn2)c1-c1ccc(Cl)cn1 equals 0

---

The entries below are paired with their reported Wheat plant response rating.
System: winter wheat (Triticum aestivum)
method_description: Test D pre-/postemergence plant response
Assay type: in vivo
test_parameters: Postemergence, 62 g ai/ha; scale 0 to 100, 0 no effect, 100 complete control
# output: bare number, no unit

Worked examples, 5 molecules total:
| chemical_structure | measured_target | Wheat plant response rating |
| --- | --- | --- |
| FCc1cc(-c2c(Br)cccc2Oc2ncc(Cl)cn2)no1 | winter wheat (Triticum aestivum) | 0 |
| FC(Cl)(Cl)c1cc(-c2ccccc2Oc2ncc(Cl)cn2)no1 | winter wheat (Triticum aestivum) | 5 |
| Clc1cnc(Oc2ccccc2-c2ccon2)nc1 | winter wheat (Triticum aestivum) | 0 |
| FC(F)c1cc(-c2c(Cl)cccc2Oc2ncc(Cl)cn2)no1 | winter wheat (Triticum aestivum) | 30 |
| Fc1ccc(Oc2ncc(Cl)cn2)c(-c2cc(C(F)(Cl)Cl)on2)c1 | winter wheat (Triticum aestivum) | 5 |

The recorded Wheat plant response rating for entry N#Cc1cccc(Oc2ncc(Cl)cn2)c1-c1cc(C(F)F)on1 equals 15

---

Tested on: corn (Zea mays)
method_description: Test D pre-/postemergence plant response
Assay type: in vivo
test_parameters: Postemergence, 125 g ai/ha; scale 0 to 100, 0 no effect, 100 complete control
The entries below are paired with their reported Plant response rating, Corn.
# output: bare number, no unit

Worked examples, 6 molecules total:
| chemical_structure | measured_target | Plant response rating, Corn |
| --- | --- | --- |
| Fc1cccc(Oc2ncc(Cl)cn2)c1-c1cc(C2CC2)on1 | corn (Zea mays) | 10 |
| FC(F)c1cc(-c2c(Cl)cccc2Oc2ncc(Cl)cn2)on1 | corn (Zea mays) | 15 |
| Cc1cc(-c2c(F)cccc2Oc2ncc(Cl)cn2)on1 | corn (Zea mays) | 5 |
| FC(F)c1cc(-c2c(Cl)cccc2Oc2ncc(Cl)cn2)no1 | corn (Zea mays) | 15 |
| FC(Cl)(Cl)c1cc(-c2ccccc2Oc2ncc(Cl)cn2)no1 | corn (Zea mays) | 15 |
| Clc1cnc(Oc2ccccc2-c2cc(Cl)sn2)nc1 | corn (Zea mays) | 10 |

The recorded Plant response rating, Corn for entry Fc1cccc(Oc2ncc(Cl)cn2)c1-c1cc(C(F)(F)F)no1 equals 10

The recorded Plant response rating, Corn for entry FC(F)(F)c1cc(-c2c(Cl)cccc2Oc2ncc(Cl)cn2)no1 equals 10

The recorded Plant response rating, Corn for entry FCc1cc(-c2c(F)cccc2Oc2ncc(Cl)cn2)no1 equals 10
